- SYSTEM TESTED: Canine_OSMR_hlgG1_Fc (canine)
- Sequence (chain, as listed by the source limits assumed, form in doubt): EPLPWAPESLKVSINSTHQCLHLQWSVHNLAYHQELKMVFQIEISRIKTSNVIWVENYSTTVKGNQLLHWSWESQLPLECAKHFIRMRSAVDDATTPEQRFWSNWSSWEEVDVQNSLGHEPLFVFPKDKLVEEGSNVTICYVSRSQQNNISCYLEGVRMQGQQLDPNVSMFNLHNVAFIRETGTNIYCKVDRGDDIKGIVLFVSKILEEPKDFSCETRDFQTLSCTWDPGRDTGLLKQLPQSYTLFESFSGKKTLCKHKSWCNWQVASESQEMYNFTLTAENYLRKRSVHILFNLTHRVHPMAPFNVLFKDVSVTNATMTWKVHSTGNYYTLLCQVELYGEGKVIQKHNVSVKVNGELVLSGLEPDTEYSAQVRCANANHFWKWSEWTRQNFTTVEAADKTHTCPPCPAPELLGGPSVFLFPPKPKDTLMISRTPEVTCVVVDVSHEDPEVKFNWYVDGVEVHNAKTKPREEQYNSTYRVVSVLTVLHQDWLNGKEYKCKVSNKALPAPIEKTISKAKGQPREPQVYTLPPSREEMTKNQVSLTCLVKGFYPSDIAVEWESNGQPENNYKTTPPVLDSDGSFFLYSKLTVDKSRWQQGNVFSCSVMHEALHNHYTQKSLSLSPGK
- PROTOCOL NOTES: SPR Biacore
RECORDED METRIC: koff (s⁻¹)
Value expressed in s⁻¹; do not type the unit.

Field: example entries. Status: answers known.
BINDER	U	koff
mouse: canine 09E09 chimera (antibody, V domains shown) VH: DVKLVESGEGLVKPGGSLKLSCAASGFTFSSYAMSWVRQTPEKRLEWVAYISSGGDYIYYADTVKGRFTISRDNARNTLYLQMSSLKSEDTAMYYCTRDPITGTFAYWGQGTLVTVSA VL: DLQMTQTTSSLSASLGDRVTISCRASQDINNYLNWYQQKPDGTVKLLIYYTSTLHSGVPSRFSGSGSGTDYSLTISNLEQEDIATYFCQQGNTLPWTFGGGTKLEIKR	s⁻¹	0.0021
Mu_02D09_VH (SEQ ID NO: 31)_Y32A (antibody, V domains shown) VH: EVQLVESGGGLVKPGGSLTLSCAASGFTFSDAGMHWLRQAPEKGLEWVAYISSGSRAVFFADTVKGRFTISRDNAKNTLFLQMTSLRSDDTAMYYCARDRYDGRGFAYWGQGTLVTVSA VL: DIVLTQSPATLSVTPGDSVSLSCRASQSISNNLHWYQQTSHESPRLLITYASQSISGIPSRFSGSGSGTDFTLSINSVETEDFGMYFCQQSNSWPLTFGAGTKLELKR	s⁻¹	0.0246
mouse: canine 19F07 chimera (antibody, V domains shown) VH: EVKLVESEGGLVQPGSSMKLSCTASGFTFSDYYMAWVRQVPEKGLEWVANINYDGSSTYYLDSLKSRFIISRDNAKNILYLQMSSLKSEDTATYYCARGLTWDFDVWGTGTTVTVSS VL: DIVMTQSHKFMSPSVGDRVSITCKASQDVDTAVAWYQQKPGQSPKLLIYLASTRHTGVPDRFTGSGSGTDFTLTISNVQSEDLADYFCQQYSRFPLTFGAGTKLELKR	s⁻¹	0.000775
Canine_OSM (ligand) SCSDKYPELLGQLQKQADFMQHTNTLLDLYIRSQGLDKNGLKEHCRERPGAFPSKDALQRLSRRVFLRTLDTTLGQVLLRLAALEQDIPKAQDLEMLSGVKLNIRGFKNNIHCMAQLLPGSSETTEPTPTSPGASPSPTPTLDTFQRRLEGCRFLHGYHRFMRSVGQVFREWGKSLSRSRR	s⁻¹	0.003
Mu_02D09_VL (SEQ ID NO: 33)_Q27A (antibody, V domains shown) VH: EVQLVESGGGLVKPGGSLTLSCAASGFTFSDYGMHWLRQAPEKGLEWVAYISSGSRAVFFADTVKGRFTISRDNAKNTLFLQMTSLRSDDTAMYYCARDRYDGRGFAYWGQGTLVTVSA VL: DIVLTQSPATLSVTPGDSVSLSCRASASISNNLHWYQQTSHESPRLLITYASQSISGIPSRFSGSGSGTDFTLSINSVETEDFGMYFCQQSNSWPLTFGAGTKLELKR	s⁻¹	0.00441

Moving on to the next binder.
So what's the measured koff for this one? mouse: canine 10F07 chimera (antibody, V domains shown) VH: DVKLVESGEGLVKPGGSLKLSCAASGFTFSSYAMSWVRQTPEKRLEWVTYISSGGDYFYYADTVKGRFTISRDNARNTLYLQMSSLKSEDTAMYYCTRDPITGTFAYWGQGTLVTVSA VL: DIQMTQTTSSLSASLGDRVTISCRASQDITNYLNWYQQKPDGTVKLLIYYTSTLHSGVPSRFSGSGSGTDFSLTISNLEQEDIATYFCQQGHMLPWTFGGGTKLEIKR
0.000302
